Quick reference: protein stability index of the listed items.
B1: ZBED2 (parent)
chain: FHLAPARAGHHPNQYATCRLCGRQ

Variants of: B1
Test: protein stability index of a GFP-peptide fusion (GPS, HEK-293T) (PSI 1-6); higher = more stable;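 also: lentivirally expressed fusions sorted by FACS into six bins by GFP to DsRed ratio, PSI derived from sequencing read proportions per bin multiplied by bin number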
Conditions: c terminus: a fixed tail appended
Field format: numeric only.

Below, 2 variants whose answers are already recorded.
| Mutant Name | Data Value |
| --- | --- |
| L3C | 1.71 |
| H2A | 1.46 |

What protein stability index value was documented for this variant, R7Y ?
2.09

Another variant: F1H
2.46

Item: G9T
2.44

Try the variant F1C
2.58

Param item: L3M
1.84

What would you report for G9K ?
1.08

And what about the variant R19E ?
1.7

Now the same for R19W
1.3

Consider next the variant N13Q in the same way.
1.98

Please answer likewise for T17I
1.55

H10L ?
1.7

Another: A16L
1.42

P5D ?
2.83

Then H2T ?
2.76

Same again, this time with C21M
1.26

Try this variant next: P12G
2.48

Note, next up: A6P
1.93

Also H2D , if possible.
2.41
